Target: TrkA (Homo sapiens (Human), UniProt P04629)
Sequence (P04629 33-796): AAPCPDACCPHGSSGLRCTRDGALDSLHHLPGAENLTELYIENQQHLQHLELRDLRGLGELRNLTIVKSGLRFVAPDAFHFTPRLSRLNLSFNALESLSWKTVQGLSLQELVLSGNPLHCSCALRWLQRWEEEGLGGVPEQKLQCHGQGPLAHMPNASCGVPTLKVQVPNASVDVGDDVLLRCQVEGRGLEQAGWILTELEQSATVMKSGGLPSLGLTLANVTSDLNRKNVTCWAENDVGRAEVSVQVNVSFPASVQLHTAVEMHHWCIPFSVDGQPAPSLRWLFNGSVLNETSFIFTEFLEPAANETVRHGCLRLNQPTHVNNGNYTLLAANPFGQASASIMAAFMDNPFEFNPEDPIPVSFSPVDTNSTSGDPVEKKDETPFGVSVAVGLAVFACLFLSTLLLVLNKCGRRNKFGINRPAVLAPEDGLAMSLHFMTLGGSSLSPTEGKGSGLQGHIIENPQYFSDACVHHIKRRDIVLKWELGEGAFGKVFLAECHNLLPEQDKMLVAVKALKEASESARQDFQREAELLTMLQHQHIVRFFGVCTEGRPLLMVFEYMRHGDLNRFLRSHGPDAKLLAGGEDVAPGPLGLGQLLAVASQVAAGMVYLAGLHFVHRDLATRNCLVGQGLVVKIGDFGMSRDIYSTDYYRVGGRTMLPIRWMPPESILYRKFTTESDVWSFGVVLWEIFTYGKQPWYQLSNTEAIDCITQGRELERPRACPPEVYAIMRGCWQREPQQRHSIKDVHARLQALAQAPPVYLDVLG
Test: KinaseProfiler off-target kinase profiling
Format: biochemical
Conditions: 10 μM, ATP near Km
readout: Avg. POC (POC)
# value in POC; strip the unit string

# input Which measured Avg. POC value corresponds to COCc1ccc2c(c1)C(NC(=O)Nc1c(C)c(-c3cnn(C)c3)nn1-c1ccccc1)COC2 (stereo not shown) ?
# output 0

# input Which measured Avg. POC value corresponds to Cc1c(-c2cnn(C)c2)nn(-c2ccccc2)c1NC(=O)NC1CCOc2cc(F)ccc21 (stereo not shown) ?
# output −0.5

# input Which measured Avg. POC value corresponds to Cc1c(-c2ccc(=O)n(C)c2)nn(-c2ccccc2)c1NC(=O)NC1CN(CC(F)(F)F)Cc2ccccc21 (stereo not shown) ?
# output 0.5

# input Which measured Avg. POC value corresponds to Cc1c(-c2cnn(C)c2)nn(-c2ccccc2)c1NC(=O)N[C@H]1CCCc2ccccc21 ?
# output 1.5
